Test Target: Acyl-CoA (8-3)-desaturase (Rattus norvegicus, UniProt Q920R3)
Sequence (Q920R3 whole entry): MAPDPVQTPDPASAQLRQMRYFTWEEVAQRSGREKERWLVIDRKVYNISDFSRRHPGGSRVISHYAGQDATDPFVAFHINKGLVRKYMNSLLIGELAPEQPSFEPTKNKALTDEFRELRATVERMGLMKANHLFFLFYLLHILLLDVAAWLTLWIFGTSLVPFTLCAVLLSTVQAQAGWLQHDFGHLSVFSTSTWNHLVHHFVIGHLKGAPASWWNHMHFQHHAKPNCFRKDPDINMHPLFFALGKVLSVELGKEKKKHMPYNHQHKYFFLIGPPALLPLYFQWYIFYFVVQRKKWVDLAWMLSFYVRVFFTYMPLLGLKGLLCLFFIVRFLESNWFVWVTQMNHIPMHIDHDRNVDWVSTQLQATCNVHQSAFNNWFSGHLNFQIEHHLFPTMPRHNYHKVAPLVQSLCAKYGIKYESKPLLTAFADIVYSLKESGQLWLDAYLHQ
Experimental Details: Displacement of [3H]T-3364366 from D5D in rat liver microsomal membrane preincubated for 15 mins followed by radioligand addition measured after 150 mins by TopCount microscintillation counting assay
Experimental Readout: IC50 (nM)
Write the number in nM without appending the unit.

[ask] May I ask what IC50 has been recorded for O=C1OC(c2ccc(F)cc2)CN1c1ccccc1 (racemic) ?
[reply] 150

[ask] May I ask what IC50 has been recorded for O=C1OC(c2ccc(F)cc2)CN1c1cccc(F)c1 (racemic) ?
[reply] 51

[ask] May I ask what IC50 has been recorded for N#Cc1cccc(N2CC(c3ccc(F)cc3)OC2=O)c1 (racemic) ?
[reply] 78

[ask] May I ask what IC50 has been recorded for COc1ccc(OC)c(N2CC(c3ccc(F)cc3)OC2=O)c1 (racemic) ?
[reply] 13

[ask] May I ask what IC50 has been recorded for "N#Cc1cccc(N2C[C@H](c3ccc(F)cc3)OC2=O)c1" ?
[reply] 49

[ask] May I ask what IC50 has been recorded for "C[C@H]1[C@H](c2ccc(F)cc2)OC(=O)N1c1cccc(C#N)c1" ?
[reply] 5.3

[ask] May I ask what IC50 has been recorded for C[C@H]1[C@H](c2ccc(F)cc2)OC(=O)N1c1cc(F)cc(C#N)c1 (racemic) ?
[reply] 4

[ask] May I ask what IC50 has been recorded for O=C1OC(c2ccc(F)cc2)CN1Cc1ccc(Cl)cc1Cl (racemic) ?
[reply] 79

[ask] May I ask what IC50 has been recorded for COc1ccc(OC)c(N2CCN(C(=O)c3ccc(Cl)cc3)C(C)C2=O)c1 (racemic) ?
[reply] 360

[ask] May I ask what IC50 has been recorded for "C[C@@H]1[C@@H](c2ccc(F)cc2)OC(=O)N1c1cccc(C#N)c1" ?
[reply] 5800

[ask] May I ask what IC50 has been recorded for O=C1OC(c2ccc(F)cc2)CN1c1cccc(Cl)c1 (racemic) ?
[reply] 23

Origin of the recorded values: ChEMBL document CHEMBL4024749
